Where do these numbers come from? They come from paper PMC12332667.

Test system: immortalized human keratinocytes (HaCaT)
Experiment: LDH cytotoxicity test, keratinocytes
Assay type: cell-based
Conditions: 48 h, 50, 100 and 150 μg/mL, vs 1% Triton X-100
Non-standard residues stand in square brackets, D forms with d. Residues, ends and D or L forms follow the SMILES beside them. *: point of attachment. NHPhenethyl = c1ccc(CCN*)cc1; β3hV = CC(C)[C@H](N)CC(=O)O; Cbz = O=C(OCc1ccccc1)*
Readings of cytotoxicity (LDH) for the listed compounds

In the examples that follow, each entry is paired with its recorded cytotoxicity (LDH).
COMPOUND | cytotoxicity (LDH)
C=CCC(=O)NC[C@@H](NC(=O)[C@H](CC(C)C)NC(=O)[C@H](CCCNC(=N)N)NC(=O)OCc1ccccc1)C(C)C [Compound A-209] | 10–15%
CC(C)C[C@H](NC(=O)[C@H](CCCCNC(=N)N)NC(=O)OCc1ccccc1)C(=O)N[C@H](CNC(=O)/C=C/c1ccccc1)C(C)C [Compound A-134] | ≤ 50%

Now let's try a different one.
Looking for the measured cytotoxicity (LDH) of CC(C)C[C@H](NC(=O)[C@H](CCCNC(=N)N)NC(=O)OCc1ccccc1)C(=O)N[C@H](CC(=O)NCCc1ccccc1)C(C)C [Compound A-152] (Cbz-Arg-Leu-[β3hV]-NHPhenethyl) , can you help? ≤ 50%
